# Test system: 327498-153-R-J2-PDC complex spheroid growth, % test/control
# EXPERIMENT NOTES: Anticancer human tumor 327498-153-R-J2-PDC patient-derived uterine carcinosarcoma cell line growth inhibition [Asc]
# RUN PARAMETERS: second compound 1 µM; first compound 0.0316 µM; active compounds read low
OBSERVED PROPERTY: viability, T/C (%)
Form entry: value (%) — number only.

The examples below pair each entry with its known result.
CCN1CCN(Cc2ccc(Nc3ncc(F)c(-c4cc(F)c5nc(C)n(C(C)C)c5c4)n3)nc2)CC1 + CNC(C)C(=O)NC1CN(S(=O)(=O)c2cccc(S(=O)(=O)N3CCC4CCC(C(=O)NC(c5ccccc5)c5ccccc5)N4C(=O)C(NC(=O)C(C)NC)C3)c2)CCC2CCC(C(=O)NC(c3ccccc3)c3ccccc3)N2C1=O | 91.6
O=C(c1ccc(F)c(F)c1Nc1ccc(I)cc1F)N1CC(O)([C@@H]2CCCCN2)C1 + CNC(C)C(=O)NC1CN(S(=O)(=O)c2cccc(S(=O)(=O)N3CCC4CCC(C(=O)NC(c5ccccc5)c5ccccc5)N4C(=O)C(NC(=O)C(C)NC)C3)c2)CCC2CCC(C(=O)NC(c3ccccc3)c3ccccc3)N2C1=O | 92.3
O=C(c1ccc(F)c(F)c1Nc1ccc(I)cc1F)N1CC(O)([C@@H]2CCCCN2)C1 + Cc1c(S(C)(=O)=O)c(-c2cc(F)cc(N3CCN(c4ccc(NS(=O)(=O)c5ccc(NC(CCN6CCC(C(=O)OCCCP(=O)(O)O)CC6)CSc6ccccc6)c(S(=O)(=O)C(F)(F)F)c5)cc4)CC3)c2)c(-c2ccc(Cl)cc2)n1C(C)C | 74.5

Data request: Quick one: viability, T/C of C=C(F)C(=O)N1CCN(c2nc(OCC3CCCN3C)nc3c2CCN(c2cccc4cccc(Cl)c24)C3)CC1CC#N (configuration not stated) + Cc1c(S(C)(=O)=O)c(-c2cc(F)cc(N3CCN(c4ccc(NS(=O)(=O)c5ccc(NC(CCN6CCC(C(=O)OCCCP(=O)(O)O)CC6)CSc6ccccc6)c(S(=O)(=O)C(F)(F)F)c5)cc4)CC3)c2)c(-c2ccc(Cl)cc2)n1C(C)C ?
Data returned: 63.9

Data request: Quick one: viability, T/C of CNC(C)C(=O)NC1CN(S(=O)(=O)c2cccc(S(=O)(=O)N3CCC4CCC(C(=O)NC(c5ccccc5)c5ccccc5)N4C(=O)C(NC(=O)C(C)NC)C3)c2)CCC2CCC(C(=O)NC(c3ccccc3)c3ccccc3)N2C1=O (configuration not stated) + Cc1c(S(C)(=O)=O)c(-c2cc(F)cc(N3CCN(c4ccc(NS(=O)(=O)c5ccc(NC(CCN6CCC(C(=O)OCCCP(=O)(O)O)CC6)CSc6ccccc6)c(S(=O)(=O)C(F)(F)F)c5)cc4)CC3)c2)c(-c2ccc(Cl)cc2)n1C(C)C ?
Data returned: 97

Data request: Quick one: viability, T/C of C=CC(=O)N1CCN(c2nc(=O)n(-c3c(C)ccnc3C(C)C)c3nc(-c4c(O)cccc4F)c(F)cc23)C(C)C1 (configuration not stated) + CNC(C)C(=O)NC1CN(S(=O)(=O)c2cccc(S(=O)(=O)N3CCC4CCC(C(=O)NC(c5ccccc5)c5ccccc5)N4C(=O)C(NC(=O)C(C)NC)C3)c2)CCC2CCC(C(=O)NC(c3ccccc3)c3ccccc3)N2C1=O ?
Data returned: 90.6

Data request: Quick one: viability, T/C of O=C(c1cc(Cc2n[nH]c(=O)c3ccccc23)ccc1F)N1CCN(C(=O)C2CC2)CC1 + Cc1c(S(C)(=O)=O)c(-c2cc(F)cc(N3CCN(c4ccc(NS(=O)(=O)c5ccc(NC(CCN6CCC(C(=O)OCCCP(=O)(O)O)CC6)CSc6ccccc6)c(S(=O)(=O)C(F)(F)F)c5)cc4)CC3)c2)c(-c2ccc(Cl)cc2)n1C(C)C ?
Data returned: 94.5

----------
Recorded viability, T/C by entry
# Tested on: 327498-153-R-J2-PDC complex spheroid growth, % test/control
# EXPERIMENT NOTES: Anticancer human tumor 327498-153-R-J2-PDC cell line growth inhibition [Asc];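 note: spheroids exposed to compound for 7 days after 3 days of growth; 100% = DMSO vehicle control wells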
# RUN PARAMETERS: second compound 0.949 µM; first compound 0.0316 µM; active compounds read low
Form entry: value (%) — number only.

The examples below pair each entry with its known result.
O=C(c1ccc(F)c(F)c1Nc1ccc(I)cc1F)N1CC(O)([C@@H]2CCCCN2)C1 + CCN1C(C(=O)NC23CCC(C(=O)O)(CC2)CC3)C(c2cccc(Cl)c2F)C2(C(=O)Nc3cc(Cl)ccc32)C12CCCCC2 | 4.91
C#Cc1c(F)ccc2cc(O)cc(-c3ncc4c(N5CC6CCC(C5)N6)nc(OCC56CCCN5CC(F)C6)nc4c3F)c12 (stereo not drawn) + CCN1C(C(=O)NC23CCC(C(=O)O)(CC2)CC3)C(c2cccc(Cl)c2F)C2(C(=O)Nc3cc(Cl)ccc32)C12CCCCC2 | 10.2

Shift focus to the following entry.
Data request: I'm curious: which viability, T/C was measured for C=CC(=O)N1CCN(c2nc(=O)n(-c3c(C)ccnc3C(C)C)c3nc(-c4c(O)cccc4F)c(F)cc23)C(C)C1 (stereo not drawn) + CCN1C(C(=O)NC23CCC(C(=O)O)(CC2)CC3)C(c2cccc(Cl)c2F)C2(C(=O)Nc3cc(Cl)ccc32)C12CCCCC2 tested on 327498-153-R-J2-PDC complex spheroid growth, % test/control?
Data returned: 6.85

The origin of these recorded values is PubChem BioAssay AID1963424.
